- Procedure Details: soluble on expression in E. coli; label from the status in PepcDB or PDB records

[
  {
    "Sequence": "MRMIFVNLPVKNIEVSKSFFTALGFSFNPEYSDDRTLCMIVEENIFVMLLQEDRFRDFINGDIADAKQSTEVLTCLSAGSREEIDEMIATALASGGSSWKPVQDHGFMYAGSFQDPDGHVWELVHMTGQG",
    "soluble on expression in E. coli": "soluble"
  },
  {
    "Sequence": "MFNGEKVTLLEMLDAREQRAATQKELLETAPEASLLSATMNIPGEVKNSPTLTAVFLEVIDEVEQQLLDQVPIVNFYRNEKTGPEYYLAVSLAPQELKQRMVKIEETHPYGRLVDLDVLWGNEELKSLHRGDLGLPPRRCFICQEVAKVCGRNRRHSLEAMQEKITEIILTRKEQPSE",
    "soluble on expression in E. coli": "not soluble"
  },
  {
    "Sequence": "MGSDKIHHHHHHMRAVTAQAITEAVAKLCKEACYYVTPDMYAAFKKAEETEVSPLGKHILGRIIENADIAKREDMPICQDTGMTVVFVEIGQEVKIEGGYIEDAINAGVAKGYTEGYLRKSVVGEPLFNRANTKDNTPAVIHTRIVPGDKLKLKVCPKGFGSENKSVLKMLVPADGLEGVKKVFLEAVKLAGPNACPPMVIGVGIGGTMEKAAILAKKAAVRSVDSYNEHPDYAQLEKDLLEMACATGVGPQGLGGINTAVKVNIEWYPTHIAGLPVAVNINCHAARHADVTL",
    "soluble on expression in E. coli": "not soluble"
  },
  {
    "Sequence": "MKLFRVVKRGYYISYAILDNSTIIRLDEDPIKALMRYSENKEVLGDRVTGIDYQSLLKSFQINDIRITKPIDPPEVWGSGISYEMARERYSEENVAKILGKTIYEKVYDAVRPEIFFKATPNRCVGHGEAIAVRSDSEWTLPEPELAVVLDSNGKILGYTIMDDVSARDLEAENPLYLPQSKIYAGCCAFGPVIVTSDEIKNPYSLDITLKIVREGRVFFEGSVNTNKMRRKIEEQIQYLIRDNPIPDGTILTTGTAIVPGRDKGLKDEDIVEITISNIGTLITPVKKRRKIT",
    "soluble on expression in E. coli": "soluble"
  },
  {
    "Sequence": "MSHTAEIPMVPGSESPLELKPLKAVDPKAVYHRRAQRLLSLAKDSPLADYFELCRRVVAIQARLAAEADFGQLLAWGKDEAIPLSHLGSEADSYWQGLLQQLLSDLLPQVGEDLARVLRLLMQQSPEQLTSWGASLRQGHMSAVPARFSLFIWAAMGVYWSHWAPMVIKRIDQRKVAQQNLCPICGSHPVASVIVDQPRAGLRYLHCSLCESEWHYIRAHCTSCGQDKGTTLWSFDDTQAQVRIESCDECHGYTKMMFVEKSPLMDVVADDLATLMLDSELNAKGFGATTVNPLLLAHETEQ",
    "soluble on expression in E. coli": "not soluble"
  },
  {
    "Sequence": "MEWAAKKTNSLTSSSERTWKANLLVPVEDPRELMGTFDFLRDITYPKGSVKLLGLAGNTDKENLLSQLPSISEGFQEEGVFSSWTIIDTAEFEENLVVGMEALTGSFFRPSILFLRLPENRDRDEEIREIIRKASMYRMGVLLFSKHPQAGLGRQNLINLWIENRGLDWDISMELGNMDLALLIAYKLKSNWKASLSFMTFAPTAIQAQAAENFLQSLAELARIPNVKMQVLRENPIKSSKLPFASLHIFSLDPNPDLDLARHLMEKAGSSCIFALDSGEENALALLEHHHHHH",
    "soluble on expression in E. coli": "soluble"
  },
  {
    "Sequence": "GSTERPVAGPYITFTDAVNETTIMLKWMYIPASNNNTPIHGFYIYYRPTDSDNDSDYKKDMVEGDKYWHSISHLQPETSYDIKMQCFNEGGESEFSNVMICETKARKSSGQ",
    "soluble on expression in E. coli": "soluble"
  },
  {
    "Sequence": "MAHHHHHHMGDAENNENDKKCLWVPDEEVTNCYSCNAFFNVRVRKHHCRACGNVFCSNCSDNKIKISEYSYAEKVRVCDRCFMERSSPQTLLLQEDLGARKQINQDLKKALSEKMAIVERFKTFLLEFDSEILNNSDHADGSNDVMSLLKRGEKGLKDLNDKIRNYDSIIENQKKELEHLKREKEQKTELNKILHLRNHEIQQKNMNIKNLVKEKNELTLVKEESEGIIHSYKKQVEKLIIRCNQLELEKKRKNYTDQSSNYSFTNSSSQSYMMNSYRLPQNEMSVSYTVAQGPSDDPEEENCCNYCQRRVCSIM",
    "soluble on expression in E. coli": "not soluble"
  },
  {
    "Sequence": "MSLKGTPGNVPAARTGIEITPAHRAFFHALPKIELHCHLLGAVRHDTFVALAERSGAPIERAEIDAFYARGEKPVGVLHVLRALDRYLLTQPDDLRRIAYEYLEDAAAYNVRHAEFFWNPTGTVHVSGIAYADAQAAIVTGIRDAARDFGIGARLIPSIDREQDPDEAVAIVEWMKANRADEVAGLGIDYRENDRPPELFWKAYRNARAAGFRTTAHAGEFGMPWRNVETAVDLLQVDRVDHGYTIVDNPELCARYAERGIVFTVVPTNSYYLRTLPPEQWAERHPMRKMPGLGLKIHPNTDDPTLHKVNPSEAWELMFSHFGFTVAELKQFMLNGIDGAWVDDTTKAAWRAAWAPEFDVLAATLAAGEGHHHHHH",
    "soluble on expression in E. coli": "soluble"
  },
  {
    "Sequence": "MVLPKDVKWDLIRQFQRHEQDTGSPEVQIAILTERINRLTEHMKKHKKDIHSRRGLIAMVNKRRKLLEYLRETDYAKYLEVVQKLNLKVK",
    "soluble on expression in E. coli": "soluble"
  },
  {
    "Sequence": "MLNLRGVEIRKGALDGPAQARLIEALRPVLKAAPLFTPTMPNGKPLSVRMTSAGSLGWVTDKGGYRYQPTHPKGMAWPAIPPEVLDLWHGVTGQDRAPDCCLINYYGEGARMGLHQDRDEADLTWPVVSLSLGDDALFRIGNTSRGGKTESVWLNSGDVVVMGGPARLIYHGIDRIRFGSSRLLPKGGRLNLTLRVAGLEHHHHHH",
    "soluble on expression in E. coli": "not soluble"
  },
  {
    "Sequence": "MASLWRAVIGGQNNNSEDYGGVEFWSNPERTGWLTKQGEYIKTWRRRWFVLKQGKLFWFKDSDVTRVSRPRGVVPVESCLTAKGAEDVLNKQNAFELSTRNETMYFIADSEKEKEDWINSIGRSIVQNSRSVTDSEIVDYDNKH",
    "soluble on expression in E. coli": "soluble"
  }
]
